A collection of compounds and their measured melting point

Here is how some compounds turned out for melting point.
Cc1nccc(N2CCC(CN3CCN(C(=O)c4ccc(F)cc4)CC3)CC2)n1 = 127 to 128 °C
O=S(=O)(c1ccc(Br)cc1)N1CCN(CC2CCN(c3ccncc3)CC2)CC1 = 179 to 180 °C
Cc1nccc(N2CCN(CC3CCN(S(=O)(=O)c4ccc(Cl)cc4)CC3)CC2)n1 = 191 to 193 °C (dec.)
O=S(=O)(c1ccc(Br)cc1)N1CCN(CC2CCN(c3ccncc3Cl)CC2)CC1 = 158 to 159 °C
Cc1nccc(N2CCC(O)(CN3CCN(C(=O)c4ccc(F)cc4)CC3)CC2)n1 = 114 to 117 °C
Cc1cc(N2CCC(CN3CCN(S(=O)(=O)c4ccc(Cl)cc4)CC3)CC2)nc(C)n1 = 73 to 74 °C

Consider now this further compound.
What value of melting point has been reported for the following compound? O=S(=O)(c1ccc(Br)cc1)N1CCC(CN2CCC(c3ccncc3)CC2)CC1 163 to 164 °C
